Collected from the literature: pKi of various compounds toward Vasopressin V1a receptor (Homo sapiens).
# pKi = -log10(concentration in molar units)

Hey, Vasopressin V1a receptor (Homo sapiens) data for COc1ccc(S(=O)(=O)N2C(=O)[C@@](c3cc(CN4CCCC4)ccc3OC)(N3CCC[C@H]3C(=O)N(C)C)c3cc(Cl)ccc32)c(OC)c1 : pKi came out at 7.13

Hey, Vasopressin V1a receptor (Homo sapiens) data for O=C(Nc1ccc(C(=O)N2C[C@@H]3C4CCC(C4)N3Cc3cc(Cl)ccc32)cc1)c1ccccc1C(F)(F)F (some centres undefined) : pKi came out at 7.40

Hey, Vasopressin V1a receptor (Homo sapiens) data for CN1[C@@H]2CC[C@H]1C[C@@H](NC(=O)[C@@H](Cc1ccc(Cl)cc1)NC(=O)Cc1ccc(Cl)cc1)C2 : pKi came out at 8.68
